- System: HEK-293T
- assay_method_text: Multiplex assay against HEK293T
- Format: toxicity, cell-based
- assay_context: human, 24 h, 10 µM, compound concentration 10 uM, replicate 2
Population Tubulin-Different-Phenotype (%) less than 50% is YES; Population Tubulin-Different-Phenotype (%) greater than or equal to 50% is NO.

| compound | class_name |
| --- | --- |
| CC(=O)NCCc1c(Cc2ccccc2)[nH]c2ccccc12 | YES |
| C[C@H]1[C@H]2CC[C@H]3[C@@H]4CC=C5C[C@@H](N(C)C)CC[C@]5(C)[C@H]4CC[C@]23CN1C | YES |
| CSCC[C@H](NC=O)C(=O)N[C@@H](CC(C)C)C(=O)N[C@@H](Cc1ccccc1)C(=O)O | YES |
| CCNC1(C(N)=O)CCN(c2ncnc3c2nc(-c2ccccc2Cl)n3-c2ccc(Cl)cc2)CC1 | NO |
| COc1ccc2c(c1)C(C(=O)N(Cc1ccc(N(C)C)cc1)c1ccc(C(C)C)cc1)CCC2.Cl (centres undefined) | NO |
| CN1CCN2c3ncccc3Cc3ccccc3C2C1 (centres undefined) | YES |
| O=C(NCCO)c1cccc(-c2cc(Nc3ccc(OC(F)(F)F)cc3)ncn2)c1 | YES |
| CN(C)c1ccnc2sc3c(=O)n(N4CCCCCC4)cnc3c12 | NO |
| Cc1ccc(F)cc1C(=O)Nc1ccc(C(=O)N2Cc3cccn3Cc3ccccc32)c(Cl)c1 | NO |

----------
- Tested on: Fibroblast
- assay_method_text: Multiplex assay against human fibroblast
- Type: toxicity, cell-based
- assay_context: 48 h, 10 µM, compound concentration 10 uM, replicate 2
Population Fragmented Nuclei (%) values by entry

| molecule | Population Fragmented Nuclei (%) |
| --- | --- |
| C[C@@H]1C[C@H]2[C@@H]3CCC4=CC(=O)C=C[C@]4(C)[C@@]3(F)[C@@H](O)C[C@]2(C)[C@@]1(O)C(=O)CO | 36 |
| CN(C)CCCc1cc(C(=O)Nc2ccc(-c3ccncc3)cc2)ccc1O.Cl.Cl | 35 |
| Cc1ccc(/C(=C\CN2CCCC2)c2ccccn2)cc1 | 32 |
| Cc1nc2ccc(Oc3ccc(F)cc3)cc2c(=O)n1C[C@H]1CCCN(C(C)C)C1.Cl | 33 |
| O=C(NCC(=O)N1CC[C@H](N[C@H]2CC[C@@](O)(c3ccc(-c4ncccn4)cn3)CC2)C1)c1cccc(C(F)(F)F)c1 | 31 |
| Cc1ccc(C(C)(O)c2nc3ccccc3s2)c(C)c1 (centres undefined) | 34 |
| CN1CCN2c3ncccc3Cc3ccccc3C2C1 (centres undefined) | 46 |
| COc1ccc2c(c1)C(C(=O)N(Cc1ccc(N(C)C)cc1)c1ccc(C(C)C)cc1)CCC2.Cl (centres undefined) | 45 |
| CCCC(CCC)C(=O)O | 33 |

----------
- System: U2OS
- assay_method_text: Multiplex assay against U2OS
- Assay type: toxicity, cell-based
- assay_context: human, 24 h, 1 µM, compound concentration 1 uM, replicate 1

| compound | Population Fragmented Nuclei (%) |
| --- | --- |
| CC(C)(C)c1ccc(S(=O)(=O)Nc2ccc(Cl)cc2C(=O)c2cc[n+]([O-])cc2)cc1 | 25 |
| O=S(=O)(c1ccccc1)c1cnc2c(N3CCNCC3)cccc2c1 [INTEPIRDINE] | 22 |
| Cc1ccc(/C(=C\CN2CCCC2)c2ccccn2)cc1 | 23 |
| CN(C)CCCc1cc(C(=O)Nc2ccc(-c3ccncc3)cc2)ccc1O.Cl.Cl | 28 |
| C[C@@H]1C[C@H]2[C@@H]3CCC4=CC(=O)C=C[C@]4(C)[C@@]3(F)[C@@H](O)C[C@]2(C)[C@@]1(O)C(=O)CO | 19 |
| COc1ccc2c(c1)C(C(=O)N(Cc1ccc(N(C)C)cc1)c1ccc(C(C)C)cc1)CCC2.Cl (centres undefined) | 27 |
| CN1CCN(c2nc3cc(C(F)(F)F)ccc3n3cccc23)CC1.O=C(O)/C=C\C(=O)O.O=C(O)/C=C\C(=O)O | 17 |
| CCNC1(C(N)=O)CCN(c2ncnc3c2nc(-c2ccccc2Cl)n3-c2ccc(Cl)cc2)CC1 | 26 |
| c1cc(OCCCN2CCCCC2)ccc1CN1CCCCC1 | 25 |
| Cc1ccc(-c2ccc(F)cc2COc2ccc(CCC(=O)O)cc2)cc1 | 21 |
| CSCC[C@H](NC=O)C(=O)N[C@@H](CC(C)C)C(=O)N[C@@H](Cc1ccccc1)C(=O)O | 24 |
| O=C(O)Cc1ccccc1Nc1c(Cl)cccc1Cl | 15 |
| Cc1ccc(F)cc1C(=O)Nc1ccc(C(=O)N2Cc3cccn3Cc3ccccc32)c(Cl)c1 | 26 |
| N#Cc1c(N)nc(SCc2csc(-c3ccc(Cl)cc3)n2)c(C#N)c1-c1ccc(OCCO)cc1 | 23 |
| CN1CCN2c3ncccc3Cc3ccccc3C2C1 (centres undefined) | 15 |
| Cc1ccccc1C(=O)Nc1ccc(C(=O)N2CCCC(N(C)C)c3ccccc32)cc1.Cl (centres undefined) | 18 |
| Cc1nc2ccc(Oc3ccc(F)cc3)cc2c(=O)n1C[C@H]1CCCN(C(C)C)C1.Cl | 23 |
| CCCC(CCC)C(=O)O | 24 |
| O=C(NCC(=O)N1CC[C@H](N[C@H]2CC[C@@](O)(c3ccc(-c4ncccn4)cn3)CC2)C1)c1cccc(C(F)(F)F)c1 | 22 |
| O=C(O)c1cc2ccccc2c(Cc2c(O)c(C(=O)O)cc3ccccc23)c1O | 18 |
| Cc1ccc(C(C)(O)c2nc3ccccc3s2)c(C)c1 (centres undefined) | 22 |
| C[C@H]1[C@H]2CC[C@H]3[C@@H]4CC=C5C[C@@H](N(C)C)CC[C@]5(C)[C@H]4CC[C@]23CN1C | 18 |
| Cl.Clc1ccc2nsnc2c1NC1=NCCN1 [TIZANIDINE HYDROCHLORIDE] | 19 |
| N[C@@]1(C(=O)O)CO[C@H]2[C@H](C(=O)O)[C@H]21 | 20 |
